# Lookup of reported IC keyed by entry
# Test system: Enterococcus from fish
# assay.remarks: Antibacterial activity (IC), agar as in Example 8, media with 1.5% NaCl, 25°C (Example 20, Tables 53-55)
# Type: cell-based
# conditions.used: Enterococcus Seriolicida MS89064
reported.endpoint: IC

>>> measurement("CC(Oc1cccc(Oc2ccc(C(F)(F)F)cc2Cl)c1)C(=O)C(C#N)c1ccccc1 (stereo not drawn)")
"≤10 (10-1 µg/ml)"
>>> measurement("CC(Oc1cccc(Oc2ccc(Br)cc2F)c1)C(=O)C(C#N)c1cccc(Cl)c1 (stereo not drawn)")
"≤10 (10-1 µg/ml)"
>>> measurement("CC(Oc1cc(Cl)cc(Oc2ccc(C(F)(F)F)cc2Cl)c1)C(=O)C(C#N)c1cccc(Br)c1 (stereo not drawn)")
"≤ 1 µg/mL"
>>> measurement("CC(Oc1cc(Oc2ccc(C(F)(F)F)cc2Cl)ccc1[N+](=O)[O-])C(=O)C(C#N)c1ccc(Cl)cc1Cl (stereo not drawn)")
"≤10 (10-1 µg/ml)"
>>> measurement("CC(Oc1cccc(Oc2ccc(C(F)(F)F)cc2Cl)c1)C(=O)C(C#N)c1cccc(C(F)(F)F)c1 (stereo not drawn)")
"≤10 (10-1 µg/ml)"
